Tested on: UO-31 renal
test.protocol: NCI-60 one-dose screen, 48 h (100 = growth as untreated, 0 = no growth, -100 = all killed)
conditions.used: 10 µM unless noted
This is part of a sample that, as a whole, favours compounds with a hit. Of some 83,000 tested, about 20% had one in any assay. The source made the active and inactive calls. Rule for the calls: active = growth percent below 10; inactive = the rest.
# growth per record follows
parameter.measured: growth

[
  {
    "compound": "CCO/C=N/C1=C(C#N)C(c2ccc(Cl)cc2)c2sc3c(C)cccc3c2O1 (centres undefined)",
    "meas.value": "30.3% (inactive)"
  },
  {
    "compound": "COC(=O)C[Se]C(=O)Cc1c(C)n(C(=O)c2ccc(Cl)cc2)c2ccc(OC)cc12",
    "meas.value": "9.87% (active)"
  },
  {
    "compound": "NC(N)=Nc1ccc(Nc2cccc(Nc3ccc(Cl)c(C(F)(F)F)c3)c2)cn1",
    "meas.value": "82.3% (inactive)"
  },
  {
    "compound": "COc1c(N2CC3CCCNC3C2)c(F)cc2c(=O)c(C(=O)N/N=C/c3ccc(Br)cc3)cn(C3CC3)c12 (centres undefined)",
    "meas.value": "60.5% (inactive)"
  },
  {
    "compound": "COc1c(N2CC3CCCNC3C2)c(F)cc2c(=O)c(C(=O)N/N=C/c3ccc(F)cc3)cn(C3CC3)c12 (centres undefined)",
    "meas.value": "80.7% (inactive)"
  },
  {
    "compound": "CN(Cc1ccccc1)S(=O)(=O)/N=C1\\NC(=O)NC1=C(Cl)Cl",
    "meas.value": "93.3% (inactive)"
  },
  {
    "compound": "COc1ccc(/C(N)=N/C(N)=N/c2nc3ccccc3s2)cc1",
    "meas.value": "57.4% (inactive)"
  },
  {
    "compound": "Cc1cc(C)n(C(=O)c2sc(=S)n(-c3ccccc3)c2N=Nc2c(N)n[nH]c2N)n1",
    "meas.value": "84.8% (inactive)"
  },
  {
    "compound": "CCN(CC)c1cn(-c2ccc(S(N)(=O)=O)cc2)nn1",
    "meas.value": "91.8% (inactive)"
  },
  {
    "compound": "COc1ccc2c(c1)c(CC(=O)[Se]CC#N)c(C)n2C(=O)c1ccc(Cl)cc1",
    "meas.value": "-3.23% (active)"
  },
  {
    "compound": "C=CCn1c(SCC(=O)Nc2ccc(C(=O)/C=C/c3ccc(Cl)cc3)cc2)nnc1-c1c[nH]c2ccccc12",
    "meas.value": "47.8% (inactive)"
  },
  {
    "compound": "Nc1ncc(-c2ccc(NS(=O)(=O)c3ccc(Cl)c(Cl)c3)cc2)[nH]1",
    "meas.value": "76.3% (inactive)"
  },
  {
    "compound": "Cc1cc(C)c2sc(=O)n(Cc3nnc(SCCC(=O)O)o3)c2n1",
    "meas.value": "91.8% (inactive)"
  },
  {
    "compound": "CCCCCc1ccc(S(=O)(=O)Nc2cccc(-c3csc(NC(=O)CN4CCN(CCO)CC4)n3)c2)cc1",
    "meas.value": "79.9% (inactive)"
  },
  {
    "compound": "CC(C)c1ccc(NCc2cn(-c3ccc(C(=O)O)cc3)nc2-c2cc(C(F)(F)F)cc(C(F)(F)F)c2)cc1",
    "meas.value": "78.6% (inactive)"
  },
  {
    "compound": "CCn1c2ccccc2c2cc(-n3nncc3-c3ccccc3)ccc21",
    "meas.value": "36.8% (inactive)"
  },
  {
    "compound": "O=C(CSc1nc2ccccc2c(=O)n1-c1ccccc1)Nc1cccc(C(=O)/C=C/c2ccccc2)c1",
    "meas.value": "76% (inactive)"
  },
  {
    "compound": "Cn1ccnc1C(=O)/C=C/c1ccc(CNC(=O)c2ccc(F)cc2)cc1",
    "meas.value": "34.9% (inactive)"
  },
  {
    "compound": "Cn1cc(-c2cc(N)n3nc(-c4cn(C)c5ccccc45)cc3n2)c2ccccc21",
    "meas.value": "85.9% (inactive)"
  }
]

====

Test system: HCT-116 colon
test.protocol: NCI-60 one-dose screen, 48 h (100 = growth as untreated, 0 = no growth, -100 = all killed)
conditions.used: 10 µM unless noted
Compounds without any hit were thinned out: in the full panel of roughly 83,000, 20% have a hit.
parameter.measured: growth (%)

[
  {
    "molecule": "CCC(CC)N1C(=O)/C(=c2\\sc3n(c2=O)NC2C(N=3)N(CC)C(=O)N2CC)c2ccccc21 (centres undefined)",
    "meas.value": 27.9
  },
  {
    "molecule": "COc1cc(-c2nn(C(C)(C)C)cc2-c2ccnc(NCCCNS(=O)(=O)c3ccc(C)cc3)n2)ccc1Cl",
    "meas.value": 67.4
  },
  {
    "molecule": "CC(=O)c1nnn(-c2c(C(=O)n3nc(C)cc3C)sc(=S)n2-c2ccccc2)c1C",
    "meas.value": 104
  },
  {
    "molecule": "C=C(C)[C@@H]1CC[C@]2(COC)CC[C@]3(C)[C@H](CC[C@@H]4[C@@]5(C)CCCNC(C)(C)[C@@H]5CC[C@]43C)[C@@H]12",
    "meas.value": -29.1
  },
  {
    "molecule": "Cc1ccc2c(c1)C(=O)/C(=C/c1cccc(F)c1)S2",
    "meas.value": 105
  },
  {
    "molecule": "CNC1CCc2c(sc(NC(=O)c3ccc(C(C)(C)C)cc3)c2C(N)=O)C1 (centres undefined)",
    "meas.value": 3.12
  },
  {
    "molecule": "NC(=O)c1c(NC(=O)c2ccccc2C(F)(F)F)sc2c1CCC(=O)C2",
    "meas.value": 9.24
  },
  {
    "molecule": "C=CCn1c(-c2nc3ccc(C(=C(C#N)C#N)c4ccccc4)cc3[nH]2)cc2cc(Br)ccc21",
    "meas.value": 27.4
  },
  {
    "molecule": "N#Cc1cccc(CN2CCc3ncn(Cc4ccc(Cl)cc4)c(=O)c3C2)c1",
    "meas.value": 19.5
  },
  {
    "molecule": "O=S(=O)(Nc1ccc2c(c1)OCO2)c1ccc(-c2cnc(C3CC3)o2)cc1",
    "meas.value": 19.9
  },
  {
    "molecule": "CCCCCc1ccc(S(=O)(=O)Nc2cccc(-c3csc(NC(=O)CCCCCN4CCN(CCO)CC4)n3)c2)cc1",
    "meas.value": 30.3
  },
  {
    "molecule": "O=C(CSc1nnc(-c2ccc(Cl)cc2)n1-c1ccccc1)Nc1cccc(Cl)c1",
    "meas.value": 12.8
  },
  {
    "molecule": "Nc1ncc(-c2ccc3ncnc(N4CCc5cc(F)c(Cl)cc54)c3c2)cn1",
    "meas.value": 20.5
  },
  {
    "molecule": "CS(=O)(=O)c1ccc(-n2cc(/C=N/O)c(-c3ccccc3)n2)cc1",
    "meas.value": 92.1
  },
  {
    "molecule": "Nc1nc(-c2cccc([N+](=O)[O-])c2)c(N=Nc2ccc([N+](=O)[O-])cc2Cl)s1",
    "meas.value": 0.397
  },
  {
    "molecule": "c1cn2c(ccc3nc(-c4cn[nH]c4)c4c(c32)CCCC4)n1",
    "meas.value": 48.7
  },
  {
    "molecule": "CS(=O)(=O)c1ncc(-c2ccccc2)cn1",
    "meas.value": 96.9
  },
  {
    "molecule": "Nc1nc(Nc2ccccc2SSc2ccccc2Nc2nc(N)nc(-c3ccc4ccccc4c3)n2)nc(-c2ccc3ccccc3c2)n1",
    "meas.value": 57.9
  },
  {
    "molecule": "NC(N)=Nc1ccc(Oc2cccc(NC(N)=Nc3ccc(Cl)c(C(F)(F)F)c3)c2)cc1",
    "meas.value": 44.9
  }
]

====

Test system: OVCAR-3 ovarian
test.protocol: NCI-60 one-dose screen, 48 h (100 = growth as untreated, 0 = no growth, -100 = all killed)
conditions.used: 10 µM unless noted
About 83,000 compounds went through this panel and 20% of them were active in at least one assay; those are over-represented in the sample as a whole.

[
  {
    "smiles.input": "COc1ccccc1-n1cc(C#N)c(N)c1C(=O)c1ccc(Br)cc1",
    "assay.target": "OVCAR-3 ovarian",
    "units": "%",
    "growth": 73.3
  },
  {
    "smiles.input": "COc1ccc(NC(=O)CSc2nnc(-c3ccc4nc(-c5ccccc5)[nH]c4c3)o2)cc1",
    "assay.target": "OVCAR-3 ovarian",
    "units": "%",
    "growth": 110
  },
  {
    "smiles.input": "NC(N)=Nc1ccc(Nc2cccc(Nc3ccc(Cl)c(C(F)(F)F)c3)c2)cn1",
    "assay.target": "OVCAR-3 ovarian",
    "units": "%",
    "growth": -30.7
  },
  {
    "smiles.input": "CN1CCN(Cc2ccc(NC(=O)c3cncc(C#Cc4cnc5ccc(OCC6(C)COC6)nn45)c3)cc2C(F)(F)F)CC1",
    "assay.target": "OVCAR-3 ovarian",
    "units": "%",
    "growth": -74.5
  },
  {
    "smiles.input": "NC(N)=Nc1ccc(Oc2cccc(Nc3ccc(Cl)c(C(F)(F)F)c3)c2)cc1",
    "assay.target": "OVCAR-3 ovarian",
    "units": "%",
    "growth": 35
  },
  {
    "smiles.input": "Cn1ccnc1C(=O)/C=C/c1ccc(NC(=O)c2c(F)c(F)c(F)c(F)c2F)cc1",
    "assay.target": "OVCAR-3 ovarian",
    "units": "%",
    "growth": 107
  },
  {
    "smiles.input": "COc1ccc([C@@H]2c3[nH]c4ccccc4c3C[C@H]3C(=O)N(C4CCN(CC5CCCCC5)CC4)CC(=O)N23)c(OC)c1",
    "assay.target": "OVCAR-3 ovarian",
    "units": "%",
    "growth": 74.9
  },
  {
    "smiles.input": "CC(C)(O)c1cncc(-c2ccc3ncnc(NCc4ccccc4)c3c2)c1",
    "assay.target": "OVCAR-3 ovarian",
    "units": "%",
    "growth": 83.8
  },
  {
    "smiles.input": "Cc1ccc(-n2cc(/C=N/NC(=O)c3ccncc3)c(-c3ccc(S(C)(=O)=O)cc3)n2)cc1",
    "assay.target": "OVCAR-3 ovarian",
    "units": "%",
    "growth": 82.3
  }
]
